- Target or test system: L1196M EML4-ALK (NIH-3T3 EML4-ALK v1 L1196M cells) (Homo sapiens, UniProt Q9UM73, L1196M)
- Construct: expressed in transfected cells; the other entry of the earlier key: EML4 (Q9HC35, Echinoderm microtubule-associated protein-like 4)
- Experimental protocol: Cellular phospho-ALK (Tyr1604) ELISA assay for L1196M EML4-ALK
- Format: cell-based
- Experimental setup: NIH-3T3 EML4-ALK v1 L1196M cells, 1 hour, phospho-ALK (Tyr1604); read-out: ELISA assay for L1196M EML4-ALK (IC50)
Property label: IC50 (nM)

In the examples that follow, each entry is paired with its recorded IC50.
>  <Molecule>
CC1Oc2nc(cnc2N)-c2c(nn(C)c2C#N)Cn2ccnc2-c2ccc(F)cc21 (single isomer, unassigned) [Example 109]

>  <Target or test system>
L1196M EML4-ALK (NIH-3T3 EML4-ALK v1 L1196M cells) (Homo sapiens, UniProt Q9UM73, L1196M)

>  <Unit of measure>
nM

>  <IC50>
55.6

$$$$
>  <Molecule>
CCc1snc2c1-c1cnc(N)c(c1)O[C@H](C)c1cc(F)ccc1C(=O)N(C)C2 [Example 110]

>  <Target or test system>
L1196M EML4-ALK (NIH-3T3 EML4-ALK v1 L1196M cells) (Homo sapiens, UniProt Q9UM73, L1196M)

>  <Unit of measure>
nM

>  <IC50>
447

$$$$
>  <Molecule>
COc1nn(C)c2c1-c1cnc(N)c(c1)OC(C1CC1)c1cc(F)ccc1C(=O)N(C)C2 (single isomer, unassigned) [Example 25]

>  <Target or test system>
L1196M EML4-ALK (NIH-3T3 EML4-ALK v1 L1196M cells) (Homo sapiens, UniProt Q9UM73, L1196M)

>  <Unit of measure>
nM

>  <IC50>
21.9

$$$$

1 = CCn1nnc2c1-c1cnc(N)c(c1)O[C@H](C)c1cc(F)ccc1C(=O)N(C)C2 [Example 133]
2 = CCN1Cc2c(c(C)nn2C)-c2cnc(N)c(c2)OC(C)c2cc(F)ccc2C1=O (single isomer, unassigned) [Example 9]
Query: Between the two listed entries 1 and 2 , which has its IC50 at the higher number? Please indicate the selected item by its label.
Result: 1

These measurements were taken from patent US8680111B2.
